target: T1, Human CD137 ECD (human); assay: single mutant vs template dBBDu183H
T1 construct: also called 4-1BB
T1 sequence (chain, as listed by the source limits assumed): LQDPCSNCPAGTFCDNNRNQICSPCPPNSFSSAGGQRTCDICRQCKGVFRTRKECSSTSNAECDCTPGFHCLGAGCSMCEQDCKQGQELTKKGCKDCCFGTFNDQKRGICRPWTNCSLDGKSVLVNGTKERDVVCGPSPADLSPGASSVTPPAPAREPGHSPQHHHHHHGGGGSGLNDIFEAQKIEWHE
# fold change of affinity listing for each entry below
Kindly provide the numeric value in fold only, without the unit symbol.

// below: answered binders
>  <binder>
H183/L072 VH T100bL (antibody, name in Kabat numbering, V domains shown) VH: QVQLVESGGGLVQPGRSLRLSCAASGFTFSNAWMHWVRQAPGKGLEWVAQIKDKGNAYAAYYAPSVKGRFTISRDDSKNSIYLQMNSLKTEDTAVYYCHYVHYASASLVLPAFGVDAWGQGTTVTVSS VL: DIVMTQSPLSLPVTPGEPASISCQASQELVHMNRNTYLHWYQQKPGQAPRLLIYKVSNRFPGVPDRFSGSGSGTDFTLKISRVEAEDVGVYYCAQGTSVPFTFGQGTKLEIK

>  <fold change of affinity, fold>
0.1

$$$$
>  <binder>
H183/L072 VH A60I (antibody, name in Kabat numbering, V domains shown) VH: QVQLVESGGGLVQPGRSLRLSCAASGFTFSNAWMHWVRQAPGKGLEWVAQIKDKGNAYAAYYIPSVKGRFTISRDDSKNSIYLQMNSLKTEDTAVYYCHYVHYASASTVLPAFGVDAWGQGTTVTVSS VL: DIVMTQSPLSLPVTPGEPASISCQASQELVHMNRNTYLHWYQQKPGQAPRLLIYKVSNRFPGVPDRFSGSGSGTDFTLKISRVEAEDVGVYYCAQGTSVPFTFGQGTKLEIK

>  <fold change of affinity, fold>
0.7

$$$$

The record that follows has no fold change of affinity shown yet.
Inquiry: fold change of affinity for H183/L072 VH S99L (antibody, name in Kabat numbering, V domains shown) VH: QVQLVESGGGLVQPGRSLRLSCAASGFTFSNAWMHWVRQAPGKGLEWVAQIKDKGNAYAAYYAPSVKGRFTISRDDSKNSIYLQMNSLKTEDTAVYYCHYVHYALASTVLPAFGVDAWGQGTTVTVSS VL: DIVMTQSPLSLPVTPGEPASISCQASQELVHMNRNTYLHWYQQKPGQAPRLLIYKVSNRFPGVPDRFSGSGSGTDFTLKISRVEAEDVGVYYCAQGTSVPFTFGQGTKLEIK ?
Reply text: 0.3
